The measured values listed here are drawn from patent US9593112B2.

Test system: Rice plants
procedure.details: Paddy herbicidal activity test, phytotoxicity to transplanted rice
Type: in vivo
test.conditions: 5 g a.i./10 a; rice transplanted at 2.0 leaf stage; 30 days
Provide the reported phytotoxicity (growth inhibition level) Rice plants of each item.

Consider the reported phytotoxicity (growth inhibition level) Rice plants for these compounds:
smiles.notation	reported
C#CCN(C)c1c(C#N)cnn1-c1nn2c(c1Cl)CCCC2	1 (1: 10% to less than 20%)
C#CCCNc1c(C#N)cnn1-c1nn2c(c1Cl)CCCC2	1 (1: 10% to less than 20%)
C#CCNc1c(C#N)cnn1-c1nn2c(c1Cl)CCCC2	2 (2: 20% to less than 30%)

Below: the item to evaluate.
In: Fill blank: measured phytotoxicity (growth inhibition level) Rice plants of the compound CC#CCNc1c(C#N)cnn1-c1nn2c(c1Cl)CCCC2 is ____.
Out: 1 (1: 10% to less than 20%)

* * *

Provide the reported herbicidal efficacy (growth inhibition level) Digitaria ciliaris of each item.
Tested on: Digitaria ciliaris
procedure.details: Weed foliar treatment test
Format: in vivo
test.conditions: 10 g a.i./10 a; foliar spray at 1.0 to 2.0 leaf stage of Digitaria ciliaris; 3 weeks

Consider the reported herbicidal efficacy (growth inhibition level) Digitaria ciliaris for these compounds:
smiles.notation	reported
C#CCNc1c(C#N)cnn1-c1nn2c(c1Cl)CCCC2	5 (5: 50% to less than 60%)
C#CCN(C)c1c(C#N)cnn1-c1nn2c(c1Cl)CCCC2	2 (2: 20% to less than 30%)
CC#CCNc1c(C#N)cnn1-c1nn2c(c1Cl)CCCC2	4 (4: 40% to less than 50%)

In: Request: herbicidal efficacy (growth inhibition level) Digitaria ciliaris, test system Digitaria ciliaris, entry C#CCCNc1c(C#N)cnn1-c1nn2c(c1Cl)CCCC2
Out: 10 (10: 100%)

* * *

System: Chenopodium album
procedure.details: Weed foliar treatment test
Type: in vivo
test.conditions: 10 g a.i./10 a; foliar spray; 3 weeks
Provide the reported herbicidal efficacy (growth inhibition level) Chenopodium album of each item.

For each of the molecules below, note its herbicidal efficacy (growth inhibition level) Chenopodium album.
1. C#CCCNc1c(C#N)cnn1-c1nn2c(c1Cl)CCCC2
2. C#CCNc1c(C#N)cnn1-c1nn2c(c1Cl)CCCC2

Out:
1: 10 (10: 100%); 2: 6 (6: 60% to less than 70%)

For each of the molecules below, note its herbicidal efficacy (growth inhibition level) Chenopodium album.
1. C#CCN(C)c1c(C#N)cnn1-c1nn2c(c1Cl)CCCC2
2. CC#CCNc1c(C#N)cnn1-c1nn2c(c1Cl)CCCC2

Out:
3 (3: 30% to less than 40%)
5 (5: 50% to less than 60%)

* * *

System: Digitaria ciliaris
procedure.details: Weed foliar treatment test
Format: in vivo
test.conditions: 5 g a.i./10 a; foliar spray at 1.0 to 2.0 leaf stage of Digitaria ciliaris; 3 weeks
Protocol: Soil was filled into a 1/6000 are pot followed by seeding with Digitaria ciliaris, Chenopodium album and Amaranthus retroflexus, covering with soil, and cultivating in a glass greenhouse at an average atmospheric temperature of 25° C. […]
Provide the reported herbicidal efficacy (growth inhibition level) Digitaria ciliaris of each item.

Consider the reported herbicidal efficacy (growth inhibition level) Digitaria ciliaris for these molecules:
molecule	reported
C#CCCNc1c(C#N)cnn1-c1nn2c(c1Cl)CCCC2 [Compound 1]	10 (10: 100%)
C#CCN(C)c1c(C#N)cnn1-c1nn2c(c1Cl)CCCC2 [Compound 4.73]	1 (1: 10% to less than 20%)
CC#CCNc1c(C#N)cnn1-c1nn2c(c1Cl)CCCC2 [4.131, 4.132]	3 (3: 30% to less than 40%)

Below: the item to evaluate.
In: Fill blank: measured herbicidal efficacy (growth inhibition level) Digitaria ciliaris of the molecule C#CCNc1c(C#N)cnn1-c1nn2c(c1Cl)CCCC2 [4.85, 4.156] is ____.
Out: 3 (3: 30% to less than 40%)
